Reference for the values: patent US10590153B2

Assay: Drying behaviour of crystallisates in dependence on residual moisture and product purity (tempering in sealed vials, visual points classification)
Format: physicochemical
Set-up: key: 5 points=sample unchanged; 4 points=sample compacted/started to dissolve; 3 points=sample visibly started to dissolve; 2 points=sample cloudy highly viscous solution; 1 point=sample dissolved to clear solution
Conditions: Temperature 55 °C, test duration 24 h, sealed vial, shaken
measured.attribute: Visual classification at the end of the tempering step (points system)
Number, no unit, nothing else.

# compound, reading
measured = [
    ("O=P(O)(O)CN(CCN(CP(=O)(O)O)CP(=O)(O)O)CCN(CP(=O)(O)O)CP(=O)(O)O [unwashed quality 31 [% by mass] residual moisture]", 4),
    ("O=P(O)(O)CN(CCN(CP(=O)(O)O)CP(=O)(O)O)CCN(CP(=O)(O)O)CP(=O)(O)O [unwashed quality 47 [% by mass] residual moisture]", 5),
    ("O=P(O)(O)CN(CCN(CP(=O)(O)O)CP(=O)(O)O)CCN(CP(=O)(O)O)CP(=O)(O)O [unwashed quality 51 [% by mass] residual moisture]", 5),
    ("O=P(O)(O)CN(CCN(CP(=O)(O)O)CP(=O)(O)O)CCN(CP(=O)(O)O)CP(=O)(O)O [unwashed quality 19 [% by mass] residual moisture]", 5),
    ("O=P(O)(O)CN(CCN(CP(=O)(O)O)CP(=O)(O)O)CCN(CP(=O)(O)O)CP(=O)(O)O [unwashed quality 40 [% by mass] residual moisture]", 5),
]

Which Visual classification at the end of the tempering step (points system) is reported for this compound? O=P(O)(O)CN(CCN(CP(=O)(O)O)CP(=O)(O)O)CCN(CP(=O)(O)O)CP(=O)(O)O [unwashed quality 36 [% by mass] residual moisture]
5

Which Visual classification at the end of the tempering step (points system) is reported for this compound? O=P(O)(O)CN(CCN(CP(=O)(O)O)CP(=O)(O)O)CCN(CP(=O)(O)O)CP(=O)(O)O [washed quality 11 [% by mass] residual moisture]
5

Which Visual classification at the end of the tempering step (points system) is reported for this compound? O=P(O)(O)CN(CCN(CP(=O)(O)O)CP(=O)(O)O)CCN(CP(=O)(O)O)CP(=O)(O)O [unwashed quality 24 [% by mass] residual moisture]
4
